# credit: the supplement of paper PMC10567573

B1: TOR1AIP2 (parent)
chain: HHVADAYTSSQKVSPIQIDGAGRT

# Variants of: B1
# test-method-notes: protein stability index of a GFP-peptide fusion (GPS, HEK-293T) (PSI 1-6); higher = more stable;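 also: lentivirally expressed fusions sorted by FACS into six bins by GFP to DsRed ratio, PSI derived from sequencing read proportions per bin multiplied by bin number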
# experimental-conditions: c terminus: a fixed tail appended
test-readout: protein stability index

Query block: # get_value(readout='protein stability index', item= HHVADAYTLSQKVSPIQIDGAGRT [S9L] )
Result block: 3.28
